Biological target: CB1 receptor (Homo sapiens)
Sequence (P21554 whole entry): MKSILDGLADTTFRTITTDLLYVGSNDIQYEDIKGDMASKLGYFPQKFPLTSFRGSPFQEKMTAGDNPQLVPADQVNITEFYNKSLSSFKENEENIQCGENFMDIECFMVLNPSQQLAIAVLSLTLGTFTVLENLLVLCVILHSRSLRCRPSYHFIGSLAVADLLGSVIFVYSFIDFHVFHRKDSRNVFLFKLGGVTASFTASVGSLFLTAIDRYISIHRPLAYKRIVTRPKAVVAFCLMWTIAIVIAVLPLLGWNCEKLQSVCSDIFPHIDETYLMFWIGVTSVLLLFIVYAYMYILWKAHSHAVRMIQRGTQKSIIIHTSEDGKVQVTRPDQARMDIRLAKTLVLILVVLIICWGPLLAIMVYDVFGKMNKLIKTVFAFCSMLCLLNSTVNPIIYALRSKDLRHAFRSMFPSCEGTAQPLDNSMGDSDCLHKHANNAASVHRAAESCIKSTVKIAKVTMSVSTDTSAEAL
Test: Human cannabinoid receptor bonding inhibition test ([3H]CP55940), CB1
Assay type: binding
Parameters: expressed in transfected cells; membrane fraction
OBSERVATION TYPE: pKi
In textbook form, pKi equals minus log to base ten of the concentration in mol/L.

# lookup: CB1 receptor (Homo sapiens) pKi, key = O=C(N[C@@H](C(=O)O)c1ccccc1)c1cc2c(n(CCCC(F)(F)F)c1=O)CCCCCC2 [Compound X-54] 7.03

Give reported pKi for CCc1c(C)cc(C(=O)NCC2(CC(=O)O)CCCCC2)c(=O)n1Cc1ccc(F)cc1 [Compound X-197] (CB1 receptor (Homo sapiens)) 5.90

Determine reported pKi for CC(C)(NC(=O)c1cc2c(n(CC3CCCCC3)c1=O)CCCCCC2)C(N)=O [Compound I-002] ; test system: CB1 receptor (Homo sapiens). 7.32

----------
System: scratching action induced by Compound 48/80
Assay: Anti-pruritic activity test by application (Compound 48/80 scratching)
Assay type: in vivo, mouse (Crj:CD-1 (ICR))
Details: Mus musculus, topical, read-out: Itching inhibition ratio % (Concentration %)
Experimental: 1) Preparation of the compound and the reagent: The compound being tested was dissolved in acetone (SIGMA). Compound 48/80 (SIGMA) was dissolved in physiological saline (m by Otsuka Pharmaceutical Co., Ltd.) so as to be 60 μg/mL. 2) Animals: Female Crj: CD-1 (ICR) mice of 6 to 10 age in week (Japan Charles Liver) were used as laboratory animals. […]
OBSERVATION TYPE: inhibition in vivo at 3 % (%)
// units = %; emit number, no label

Please list inhibition in vivo at 3 % recorded for the molecule CNC(=O)CNC(=O)C(C)(C)NC(=O)c1cc2c(n(CC3CCCCC3)c1=O)CCCCCC2 [Compound I-590] 75

Provide inhibition in vivo at 3 % value for the following molecule: CC(C)(NC(=O)c1cc2c(n(CC3CCCCC3)c1=O)CCCCCC2)C(=O)C1CCCC(C(N)=O)N1 (centres unmarked) [Compound I-580] 98

Tell me its inhibition in vivo at 3 % given CC(C)(CCNC(=O)c1cc2c(n(CC3CCCCC3)c1=O)CCCCCC2)C(=O)O [III-017] as the entry. 76

Using the record for C/C=C/C(CC(=O)O)NC(=O)c1cc2c(n(CC3CCCCC3)c1=O)CCCCCC2 (centres unmarked) [II-075] , state its measured inhibition in vivo at 3 %. 95

Note inhibition in vivo at 3 % for the molecule shown: O=C(N[C@H](C(=O)O)c1ccccc1)c1cc2c(n(CC3CCCCC3)c1=O)CCCCCC2 [Compound I-402] 59

Determine from records and report inhibition in vivo at 3 % for CC(C)C[C@@H](CC(=O)O)NC(=O)c1cc2c(n(CC3CCCCC3)c1=O)CCCCCC2 [II-069] 84

Respond only with inhibition in vivo at 3 % recorded for CCc1c(C)cc(C(=O)N[C@H](C(=O)NC(CO)CO)C(C)(C)C)c(=O)n1CC1CCCCC1 [Compound I-038] 67

Return the recorded inhibition in vivo at 3 % value; entry: O=C(O)CC(NC(=O)c1cc2c(n(Cc3ccc(F)cc3)c1=O)CCCCCC2)C(F)(F)F (centres unmarked) [II-067] 68

----------
Molecular target: CB1 receptor (Homo sapiens)
Test: Human cannabinoid receptor bonding inhibition test ([3H]CP55940), CB1
Format: binding
Parameters: expressed in transfected cells; membrane fraction
Param label: returns y when Ki < 7 nM, returns n otherwise, including exact equality.

Consider the compound "CC(C)C[C@@H](CC(=O)O)NC(=O)c1cc2c(n(CC3CCCCC3)c1=O)CCCCCC2" . Is its Ki strictly less than 7 nM? n

In the record for "COC(=O)C(C)(C)NC(=O)c1cc2c(n(Cc3ccc(F)cc3)c1=O)CCCCCC2" , is Ki less than 7 nM? y

Does the reported Ki of CC(C)(NC(=O)c1cc2c(n(CC3CCCCC3)c1=O)CCCCCC2)C(=O)C1CCCC(C(N)=O)N1 (stereo not drawn) stay below 7 nM? n

Here's an entry: "CC(C)(NC(=O)c1cc2c(n(CC3CCCCC3)c1=O)CCCCCC2)C(=O)NNC(=O)c1cccnc1" . Is its Ki below 7 nM? n

A record lists "CCCc1c(CC)cc(C(=O)N[C@H](C(=O)OC)C(C)C)c(=O)n1CC1CCCCC1" . Is its Ki below 7 nM? y

Lab log: compare recorded Ki with 7 nM; is it strictly lower for "CC(C)(CNCCC(N)=O)NC(=O)c1cc2c(n(CC3CCCCC3)c1=O)CCCCCC2" ? n

Consider the compound "O=C(O)C1=C(NC(=O)c2cc3c(n(CC4CCCCC4)c2=O)CCCCCC3)CCCC1" . Is its Ki strictly less than 7 nM? n

Is 7 nM strictly greater than the compound's reported Ki? compound: "CCCCn1c2c(cc(C(=O)N[C@H](C(=O)OC)C(C)C)c1=O)CCCCCC2" y

FYI, the data here is from patent US8367666B2.
